Reported Injury Rating, Pigweed values follow for various compounds
Test system: Pigweed
Experiment: Preemergent injury rating, pigweed
Assay type: in vivo, rough pigweed
Design: key: injury rating scale on which 4 = death
Conditions: 2 lbs/acre
Protocol: Various of the compounds to be employed as active agent in accordance with the present invention were evaluated for preemergent application to various species of plants. […] 4--death When more than one determination was carried out at a given rate, an average value was calculated for the injury rating. Each compound evaluated was formulated as a spray by one of the following procedures. […]
endpoint_label: Injury Rating, Pigweed

# structure_smiles_string, observed
rows = [
    ("On1c(C(F)(F)F)nc2ncc(Cl)cc21", 4),
    ("On1c(C(F)(F)C(F)F)nc2nc(Cl)c(Cl)cc21", "3BS"),
    ("CS(=O)(=O)c1cnc2nc(C(F)(F)F)n(O)c2c1", 3),
    ("On1c(C(F)(F)F)nc2nc(Cl)ccc21", 3),
]

----------
system: Crabgrass; assay: Preemergent injury rating, crabgrass; assay type: in vivo, large crabgrass; design: key: injury rating scale on which 4 = death; settings: 8 lbs/acre
Reported Injury Rating, Crabgrass values follow for various compounds
endpoint_label: Injury Rating, Crabgrass

# structure_smiles_string, observed
records = [
    ("On1c(C(F)(F)F)nc2nc(Cl)ccc21", 3),
    ("On1c(C(F)(F)F)nc2ncc(C(F)(F)F)cc21", 4),
    ("On1c(C(F)(F)F)nc2ncc(Cl)cc21", 4),
]

----------
System: Foxtail
Test: Preemergent injury rating, foxtail
Type: in vivo, foxtail (millet)
Parameters: key: injury rating scale on which 4 = death
Settings: 8 lbs/acre
Experimental: Various of the compounds to be employed as active agent in accordance with the present invention were evaluated for preemergent application to various species of plants. […] 4--death When more than one determination was carried out at a given rate, an average value was calculated for the injury rating. Each compound evaluated was formulated as a spray by one of the following procedures. […]
endpoint_label: Injury Rating, Foxtail

# structure_smiles_string, observed
records = [
    ("On1c(C(F)(F)C(F)F)nc2nc(Cl)c(Cl)cc21", "1S"),
    ("On1c(C(F)(F)F)nc2ncc(Cl)cc21", 3),
    ("On1c(C(F)(F)F)nc2nc(Cl)ccc21", 4),
    ("On1c(C(F)(F)F)nc2ncc(C(F)(F)F)cc21", 4),
]

----------
test system: Foxtail; assay: Preemergent injury rating, foxtail; type: in vivo, foxtail (millet); parameters: key: injury rating scale on which 4 = death; conditions: 2 lbs/acre
Reported Injury Rating, Foxtail values follow for various compounds

# structure_smiles_string, target_entity, Injury Rating, Foxtail
records = [
    ("On1c(C(F)(F)C(F)F)nc2nc(Cl)c(Cl)cc21", "Foxtail", 0),
    ("On1c(C(F)(F)F)nc2ncc(Cl)cc21", "Foxtail", 3),
    ("On1c(C(F)(F)F)nc2nc(Cl)ccc21", "Foxtail", 2),
    ("CS(=O)(=O)c1cnc2nc(C(F)(F)F)n(O)c2c1", "Foxtail", 2),
]

----------
Reported Injury Rating, Crabgrass values follow for various compounds
tested on: Crabgrass; assay: Preemergent injury rating, crabgrass; assay type: in vivo, large crabgrass; design: key: injury rating scale on which 4 = death; conditions: 2 lbs/acre

# structure_smiles_string, Injury Rating, Crabgrass
measured = [
    ("On1c(C(F)(F)F)nc2nc(Cl)ccc21", 3),
    ("On1c(C(F)(F)F)nc2ncc(Cl)cc21", 3),
    ("CS(=O)(=O)c1cnc2nc(C(F)(F)F)n(O)c2c1", 2),
]
